Tested on: MT4 CMV-EGFP cells
Assay: Cytotoxicity in mock-infected MT4 CMV-EGFP cells
Type: cell-based, human
Details: fluorescence reduced by 50%
Attribute measured: CC50

{"columns": ["Smi", "CC50"],
 "data": [
  ["N#Cc1cc2cc(OC[C@H]3CCCN3)ccc2n(-c2ccc([N+](=O)[O-])cc2)c1=O", "> 32 µM"],
  ["N#Cc1c(N)c2ccccc2n(-c2ccc(Cl)nc2)c1=O", "> 32 µM"],
  ["N#Cc1cc2ccc(-c3ccc(C(=O)O)cc3)cc2n(-c2ccc([N+](=O)[O-])cc2)c1=O", "> 100 µM"],
  ["N#Cc1c(NCCCN)c2ccccc2n(-c2ccc([N+](=O)[O-])cc2)c1=O", "45.1 µM"],
  ["CN(C)C(=O)c1ccc(-c2ccc3cc(C#N)c(=O)n(-c4ccc([N+](=O)[O-])cc4)c3c2)cc1", "> 100 µM"],
  ["CC(=O)Nc1cccc(-c2ccc3cc(C#N)c(=O)n(-c4ccc([N+](=O)[O-])cc4)c3c2)c1", "> 100 µM"]
]}

Note to self: CC50 recorded for N#Cc1cc2ccc(OCCCN)cc2n(-c2ccc([N+](=O)[O-])cc2)c1=O was 49.6 µM

Note to self: CC50 recorded for Cc1ccc(-n2c(=O)c(C#N)cc3ccc(-c4cccn4C)cc32)cc1C#N was > 100 µM

Note to self: CC50 recorded for N#Cc1cc2ccccc2n(-c2ccc(Cl)nc2)c1=O was > 32 µM

Note to self: CC50 recorded for N#Cc1c(NCCc2c[nH]cn2)c2ccccc2n(-c2ccc([N+](=O)[O-])cc2)c1=O was > 100 µM

Note to self: CC50 recorded for COc1ccc2c(N)c(C#N)c(=O)n(-c3ccc([N+](=O)[O-])cc3)c2c1 was > 100 µM

* * *

pEC50 reference
Tested on: wild-type HIV-IIIB strain
Assay: Antiviral analysis EGFP: anti-HIV activity in MT4 LTR-EGFP cells
Type: cell-based, HIV-1
Conditions: fluorescence of HIV-infected cells reduced by 50%, three days after infection
Remember the convention: pEC50 equals -log10 of concentration in molar.

{"columns": ["Smi", "pEC50"],
 "data": [
  ["CN(C)CCCNc1ccc2cc(C#N)c(=O)n(-c3ccc([N+](=O)[O-])cc3)c2c1", 6.52],
  ["N#Cc1cc2ccc(OCCN)cc2n(-c2ccc([N+](=O)[O-])cc2)c1=O", 5.94]
]}

Note to self: pEC50 recorded for Cc1ccc(-n2c(=O)c(C#N)c(N)c3ccc(-c4cc[nH]n4)cc32)cc1C#N was 4.08

Note to self: pEC50 recorded for Cc1ccc(-n2c(=O)c(C#N)cc3ccc(-c4cc[nH]n4)cc32)cc1C#N was 6.28

Note to self: pEC50 recorded for N#Cc1c(NCCCN)c2ccccc2n(-c2ccc([N+](=O)[O-])cc2)c1=O was 5.44

* * *

EC50 reference
System: wild-type HIV-IIIB strain
Assay: Antiviral analysis EGFP: anti-HIV activity in MT4 LTR-EGFP cells
Format: cell-based, HIV-1
Details: fluorescence of HIV-infected cells reduced by 50%, three days after infection
Output spec: scalar in nM, unitless text.

{"columns": ["Smi", "Measurement target", "Reported"],
 "data": [
  ["CN(C)C(=O)c1ccc(-c2ccc3cc(C#N)c(=O)n(-c4ccc([N+](=O)[O-])cc4)c3c2)cc1", "wild-type HIV-IIIB strain", 950]
]}

Note to self: EC50 recorded for N#Cc1cc2ccc(OCCCO)cc2n(-c2ccc([N+](=O)[O-])cc2)c1=O was 1030

Note to self: EC50 recorded for CN(C)CCCOc1ccc2c(c1)cc(C#N)c(=O)n2-c1ccc([N+](=O)[O-])cc1 was 1150

Note to self: EC50 recorded for N#Cc1cc2cc(OC[C@@H]3CCCN3)ccc2n(-c2ccc([N+](=O)[O-])cc2)c1=O was 1410

Note to self: EC50 recorded for CC(=O)NCc1cccc(-c2ccc3cc(C#N)c(=O)n(-c4ccc([N+](=O)[O-])cc4)c3c2)c1 was 930
